So I've got a bunch of sequences here, and I need their Binding of serum SARS-green to looped/cyclic peptides of protein X5 of SARS-CoV Urbani values.
# Test system: antibodies in sera from SARS patients (sera 1a, 1b, 2, 6, 37, 62, London, SARS-yellow, SARS-green)
# Type: binding, human
One number for each entry.

The following sequences have reported results that may help.
| polymerSequence | recordedValue |
| --- | --- |
| LCALGKVLPFHRWHT | 0.4 |
| LKILVRYNTRGNTYS | 0.4 |
| ALGKVLPFHRWHTMV | 0.6 |

Next, consider the following sequence.
[in] Give the measured Binding of serum SARS-green to looped/cyclic peptides of protein X5 of SARS-CoV Urbani of LVRYNTRGNTYSTAW .
[out] 0.3

----------
# System: antibodies in sera from SARS patients (sera 1a, 1b, 2, 6, 37, 62, London, SARS-yellow, SARS-green)
# Type: binding, human
Each record is given Satisfied if its reported Binding of serum 1a to looped/cyclic peptides of protein X4 of SARS-CoV Urbani is strictly below 0.8. Records at or above 0.8 are given Not satisfied.

[in] Determine if LFLTLIVFTSCELYH shows Binding of serum 1a to looped/cyclic peptides of protein X4 of SARS-CoV Urbani strictly lower than 0.8.
[out] Not satisfied

----------
# Test system: antibodies in sera from SARS patients (sera 1a, 1b, 2, 6, 37, 62, London, SARS-yellow, SARS-green)
# Assay type: binding, human
testReadout: Binding of serum 62 to linear peptides of protein M of SARS-CoV Urbani

The following sequences have reported results that may help.
| polymerSequence | recordedValue |
| --- | --- |
| TVATSRTLSYYKLGA | 0.8 |
| RIGNYKLNTDHAGSN | 0.6 |
| RNRFLYIIKLVFLWL | 0.5 |
| VASFRLFARTRSMWS | 0.8 |
| LMWLSYFVASFRLFA | 0.4 |
| CFVLAAVYRINWVTG | 0.4 |
| TLACFVLAAVYRINW | 0.8 |
| WPVTLACFVLAAVYR | 0.4 |

Your task in this section: give Binding of serum 62 to linear peptides of protein M of SARS-CoV Urbani for each listed record.
1. MLLQFAYSNRNRFLY
2. GFLFLAWIMLLQFAY
3. AIAMACIVGLMWLSY
4. NRFLYIIKLVFLWLL

[out]
[0.7, 0.7, 0.7, 0.7]

----------
# System: rabbit serum obtained by immunizing a rabbit with the SARS-CoV strain Frankfurt 1
# Format: binding
# Parameters: unit not given here
testReadout: Binding of a rabbit serum to looped peptides
Numbers only.

The following sequences have reported results that may help.
| polymerSequence | testedTarget | recordedValue |
| --- | --- | --- |
| LLIQQWIQFMMSRRR | rabbit serum obtained by immunizing a rabbit with the SARS-CoV strain Frankfurt 1 | 0.6 |
| IDGSSGVANPAMDPI | rabbit serum obtained by immunizing a rabbit with the SARS-CoV strain Frankfurt 1 | 0.5 |
| SGVANPAMDPIYDEP | rabbit serum obtained by immunizing a rabbit with the SARS-CoV strain Frankfurt 1 | 0.6 |

Your task in this section: give Binding of a rabbit serum to looped peptides for each listed record.
1. IQQWIQFMMSRRRLL
2. WKCKSKNPLLYDANY
3. LTSLLKTHRMCKYTQ

[out]
[1.0, 0.6, 0.4]

Your task in this section: give Binding of a rabbit serum to looped peptides for each listed record.
1. IPLQASLPFGWLVIG
2. GIENATFFIFNKLVK
3. FMRFFTLGSITAQPV
4. PLQASLPFGWLVIGV
5. QITTDTGIENATFFI

[out]
1. 0.5
2. 0.6
3. 0.4
4. 0.4
5. 1.5

Your task in this section: give Binding of a rabbit serum to looped peptides for each listed record.
1. SLYMAISPKFTTSLS
2. TTDTGIENATFFIFN
3. IVNVSLVKPTVYVYS
4. NIVNVSLVKPTVYVY
5. HITMTTVYHITVSQI
6. ALQELLIQQWIQFMM

[out]
1. 0.3
2. 0.5
3. 0.5
4. 0.6
5. 0.4
6. 0.4

[in] Give the measured Binding of a rabbit serum to looped peptides of QTLVLKMLHSSSLTS .
[out] 0.4

----------
# System: antibodies in sera from SARS patients (sera 1a, 1b, 2, 6, 37, 62, London, SARS-yellow, SARS-green)
# Assay type: binding, human
# Design: unit not given here
Label scheme for Binding of serum 2 to looped/cyclic peptides of protein N of SARS-CoV Urbani: lower than 0.4 is -1, 0.4 and above is 1.

Observe how each entry below is paired with its result.
| polymerSequence | assignedLabel |
| --- | --- |
| TPKDHIGTRNPNNNA | -1 |
| NPNNNAATVLQLPQG | 1 |
| EGALNTPKDHIGTRN | 1 |

[in] // inclusive: Binding of serum 2 to looped/cyclic peptides of protein N of SARS-CoV Urbani at least 0.4? input: QLESKVSGKGQQQQG
[out] 1

[in] // inclusive: Binding of serum 2 to looped/cyclic peptides of protein N of SARS-CoV Urbani at least 0.4? input: ASWFTALTQHGKEEL
[out] -1

[in] // inclusive: Binding of serum 2 to looped/cyclic peptides of protein N of SARS-CoV Urbani at least 0.4? input: GRNGARPKQRRPQGL
[out] -1

[in] // inclusive: Binding of serum 2 to looped/cyclic peptides of protein N of SARS-CoV Urbani at least 0.4? input: KVSGKGQQQQGQTVT
[out] 1

[in] // inclusive: Binding of serum 2 to looped/cyclic peptides of protein N of SARS-CoV Urbani at least 0.4? input: IGTRNPNNNAATVLQ
[out] 1

[in] // inclusive: Binding of serum 2 to looped/cyclic peptides of protein N of SARS-CoV Urbani at least 0.4? input: NTNSGPDDQIGYYRR
[out] 1

[in] // inclusive: Binding of serum 2 to looped/cyclic peptides of protein N of SARS-CoV Urbani at least 0.4? input: ANKEGIVWVATEGAL
[out] -1

----------
# System: antibodies in sera from SARS patients (sera 1a, 1b, 2, 6, 37, 62, London, SARS-yellow, SARS-green)
# Format: binding, human
# Design: unit not given here
testReadout: Binding of serum London to looped/cyclic peptides of protein N of SARS-CoV Urbani
Answers are plain numbers.

| polymerSequence | recordedValue |
| --- | --- |
| NGPQSNQRSAPRITF | 0.5 |

Your task in this section: give Binding of serum London to looped/cyclic peptides of protein N of SARS-CoV Urbani for each listed record.
1. FSRQLQNSMSGASAD
2. PGSSRGNSPARMASG

[out]
[0.2, 0.5]

[in] Give the measured Binding of serum London to looped/cyclic peptides of protein N of SARS-CoV Urbani of SGTWLTYHGAIKLDD .
[out] 0.8

----------
So I've got a bunch of sequences here, and I need their Binding of serum SARS-green to looped/cyclic peptide (PEPSCAN-ELISA) values.
# Test system: antibodies in sera from SARS patients (sera 1a, 1b, 2, 6, 37, 62, London, SARS-yellow, SARS-green)
# Format: binding, human
Numbers only.

The following sequences have reported results that may help.
| polymerSequence | recordedValue |
| --- | --- |
| TKIIALNKRWQLALY | 0.3 |
| LLYDANYFVCWHTHN | 0.3 |
| IPLQASLPFGWLVIG | 0.3 |

Your task in this section: give Binding of serum SARS-green to looped/cyclic peptide (PEPSCAN-ELISA) for each listed record.
1. AQFLYLYALIYFLQC
2. QSATKIIALNKRWQL
3. HLLLVAAGMEAQFLY
4. QCINACRIIMRCWLC
5. LIYFLQCINACRIIM

[out]
1. 0.3
2. 0.4
3. 0.4
4. 0.2
5. 0.6

Your task in this section: give Binding of serum SARS-green to looped/cyclic peptide (PEPSCAN-ELISA) for each listed record.
1. IYFLQCINACRIIMR
2. FICNLLLLFVTIYSH
3. MRCWLCWKCKSKNPL
4. RWQLALYKGFQFICN
5. LYDANYFVCWHTHNY

[out]
[0.2, 0.3, 0.1, 0.3, 0.3]

----------
# Tested on: control sera (pooled serum of ten healthy LUMC hospital workers; commercial negative donor pooled serum from the Dutch bloodbank)
# Format: binding, human
So I've got a bunch of sequences here, and I need their Control serum LUMC looped peptides values.
Give bare numbers.

| polymerSequence | Control serum LUMC looped peptides |
| --- | --- |
| TDYKHWPQIAQFAPS | 1.1 |
| EAQPLPQRQKKQPTV | 0.4 |
| KTDEAQPLPQRQKKQ | 0.4 |

Next, consider the following sequence.
[in] Give the measured Control serum LUMC looped peptides of LTYHGAIKLDDKDPQ .
[out] 0.5
